src = patent US6825230B2

System: ANKA strain of P. berghei
assay_notes: Single dose STI in vivo screen in infected mice
Parameters: species or system Plasmodium berghei
assay_context: single 10 mg/kg po in SSV; untreated 6-7 days
Structures can show the parent of a compound that is named as a salt.
Binning of Survival (days) 10 mg/kg SSV po into classes: LOW: < 7 days; MID: ≥ 7 days and < 8 days; HIGH: ≥ 8 days

For orientation, consider the following solved cases.
compound: [N-]=[N+]=NCC[C@H]1CC[C@]2(CC1)OOC1(O2)C2CC3CC(C2)CC1C3 (some centres unmarked)
qualitative_label: LOW

compound: N=C(N)NN=C1CCC2(CC1)OOC1(O2)C2CC3CC(C2)CC1C3 (centres unmarked) [OZ172, hydrochloride]
qualitative_label: HIGH

compound: O=[N+]([O-])c1ccc(N2CCC3(CC2)OOC2(O3)C3CC4CC(C3)CC2C4)cc1 (centres unmarked)
qualitative_label: MID

compound: C1CCN(C2CCC3(CC2)OOC2(O3)C3CC4CC(C3)CC2C4)CC1 (centres unmarked) [OZ159, hydrochloride]
qualitative_label: LOW

State the class of the compound shown: c1cnn(C[C@H]2CC[C@]3(CC2)OOC2(O3)C3CC4CC(C3)CC2C4)c1 (some centres unmarked)
MID
